Collected ED50 values appear next to each entry.
Test system: left saphenous nerve of rats (ectopic firing)
Procedure summary: Inhibition of ectopic firing
Format: in vivo
Experimental parameters: Rattus norvegicus, iv; rats with cut left saphenous nerve, urethane anesthesia, compound via catheter in right cervical vein, number of firings in 10 seconds; read-out: Inhibition of ectopic firing (ID50)

Below, each entry is followed by its recorded ED50 result.
Cc1ccccc1OCC1CCN(CCc2cncc(=O)[nH]2)CC1 ... < 0.5 mg/kg
COc1ccccc1OCC1CCN(Cc2nc3ccccc3[nH]c2=O)CC1 ... 0.5 to 1 mg/kg

Returns the measured ED50 for the input compound. Input: O=c1[nH]ccnc1CN1CCC(COCc2ccccc2F)CC1
0.5 to 1 mg/kg

Returns the measured ED50 for the input compound. Input: Cc1cccc(CC(=O)C2CCN(Cc3ncc[nH]c3=O)CC2)c1
0.5 to 1 mg/kg

Returns the measured ED50 for the input compound. Input: O=C(Cc1ccccc1F)C1CCCN(Cc2ncc[nH]c2=O)C1 (stereo not shown)
0.5 to 1 mg/kg

Returns the measured ED50 for the input compound. Input: COc1ccccc1OCC1CCN(Cc2ncc[nH]c2=O)CC1
< 0.5 mg/kg

Returns the measured ED50 for the input compound. Input: Cc1ccccc1/C=C/C1CCN(Cc2ncc[nH]c2=O)CC1
< 0.5 mg/kg

Returns the measured ED50 for the input compound. Input: O=C(CC1CCN(Cc2ncc[nH]c2=O)CC1)c1ccccc1F
0.5 to 1 mg/kg

Returns the measured ED50 for the input compound. Input: O=c1cncc(CCN2CCC(CCc3ccccc3F)CC2)[nH]1
< 0.5 mg/kg

Returns the measured ED50 for the input compound. Input: CC(c1ncc[nH]c1=O)N1CCC(C(=O)Cc2ccccc2C(F)(F)F)CC1.O=C(O)C(=O)O (stereo not shown)
< 0.5 mg/kg

Returns the measured ED50 for the input compound. Input: Cc1cccc(OCC2CCN(Cc3ncc[nH]c3=O)CC2)c1
0.5 to 1 mg/kg

Returns the measured ED50 for the input compound. Input: O=c1[nH]cc(Cl)cc1CN1CCC(O)(COc2ccccc2F)CC1
0.5 to 1 mg/kg

Returns the measured ED50 for the input compound. Input: O=c1[nH]cncc1CN1CCC(COc2ccccc2F)CC1
< 0.5 mg/kg

###

Tested on: left saphenous nerve of rats (ectopic firing)
Procedure summary: Inhibition of ectopic firing
Assay type: in vivo
Experimental parameters: Rattus norvegicus, iv; rats with cut left saphenous nerve, urethane anesthesia, compound via catheter in right cervical vein, number of firings in 10 seconds; read-out: Inhibition of ectopic firing (ID50)
Collected ED50 values appear next to each entry.

Below, each entry is followed by its recorded ED50 result.
O=C(Cc1c(F)cccc1F)C1CCN(Cc2ncc[nH]c2=O)CC1 ... 0.5 to 1 mg/kg
O=c1[nH]ccnc1CN1CCC(/C=C/c2sccc2Cl)CC1 ... 0.5 to 1 mg/kg
Cc1ccccc1COC1CCN(Cc2ncc[nH]c2=O)CC1 ... 0.5 to 1 mg/kg

# query: ED50 | item Cc1ccccc1OCC1(CCc2ccccc2F)CCN(Cc2ccc[nH]c2=O)CC1 | system: left saphenous nerve of rats (ectopic firing)
0.5 to 1 mg/kg

# query: ED50 | item O=C(CC1CCN(Cc2ncc[nH]c2=O)CC1)c1sccc1Cl | system: left saphenous nerve of rats (ectopic firing)
0.5 to 1 mg/kg

###

System: left saphenous nerve of rats (ectopic firing)
Procedure summary: Inhibition of ectopic firing
Format: in vivo
Experimental parameters: Rattus norvegicus, iv; rats with cut left saphenous nerve, urethane anesthesia, compound via catheter in right cervical vein, number of firings in 10 seconds; read-out: Inhibition of ectopic firing (ID50)
Experimental: <Inhibition of Ectopic Firing> (1) The inhibitory effect on ectopic firing was evaluated by the following method, with reference to Burchiel, K J., Exp. Neurol., 102, 249-253 (1988). […] (3) The detached nerve was placed on a platinum hook electrode and wetted with liquid paraffin to avoid drying of the nerve. The electrode was connected to a microelectrode amplifier, and the change in potential was recorded from an oscilloscope through an A/D converter onto a computer. […]
Quantity measured: ED50

Below, each entry is followed by its recorded ED50 result.
COc1ccccc1C(=O)CC1CCN(Cc2ncc[nH]c2=O)CC1 ... 0.5 to 1 mg/kg
CC(c1ncc[nH]c1=O)N1CCC(C(=O)Cc2ccccc2F)CC1 (stereo not drawn) ... < 0.5 mg/kg
O=c1cncc(CCN2CCC(COc3ccc(F)cc3F)CC2)[nH]1 ... 0.5 to 1 mg/kg
Cc1ccccc1OCC1(O)CCN(Cc2ncc[nH]c2=O)CC1 ... 0.5 to 1 mg/kg
Cc1ccccc1CCC1(O)CCN(Cc2ncc[nH]c2=O)CC1 ... 0.5 to 1 mg/kg
O=c1[nH]ccnc1CN1CCC(/C=C/c2cccc(F)c2)CC1 ... 0.5 to 1 mg/kg

Returns the measured ED50 for the input compound. Input: O=c1[nH]ccnc1CN1CCC(CCc2cccc3c2OCC3)CC1
< 0.5 mg/kg

Returns the measured ED50 for the input compound. Input: O=c1[nH]ccnc1CN1CCC(COc2ccccc2F)CC1
< 0.5 mg/kg

Returns the measured ED50 for the input compound. Input: O=c1[nH]ccnc1CN1CCC(CCc2ccccc2F)(COc2ccccc2F)CC1
0.5 to 1 mg/kg

###

Collected ED50 values appear next to each entry.
Tested on: left saphenous nerve of rats (ectopic firing)
Procedure summary: Inhibition of ectopic firing
Format: in vivo
Experimental parameters: Rattus norvegicus, iv; rats with cut left saphenous nerve, urethane anesthesia, compound via catheter in right cervical vein, number of firings in 10 seconds; read-out: Inhibition of ectopic firing (ID50)

Below, each entry is followed by its recorded ED50 result.
Cc1ccsc1/C=C/C1CCN(Cc2ncc[nH]c2=O)CC1 [Example 157] ... < 0.5 mg/kg
O=c1ccnc(CN2CCC(COc3ccccc3F)CC2)[nH]1 [Example 137] ... 0.5 to 1 mg/kg
O=c1[nH]ccnc1CN1CCC(OCc2ccccc2F)CC1 [Example 141] ... < 0.5 mg/kg

Returns the measured ED50 for the input molecule. Input: O=c1[nH]ccnc1CN1CCC(F)(COc2ccccc2F)CC1 [Example 223]
0.5 to 1 mg/kg

###

Tested on: sodium channels
Type: cell-based
Experimental parameters: read-out: IC50 (μM), sodium channel-inhibiting activity; rat fetal cultured hippocampal neurons, SBFI fluorescence in the presence of 4-aminopyridine, 5 minutes after addition, 1 μM tetrodotoxin = 100%
Heads up, the class ranges for IC50 are lower level = under 3 µM, middle level = from 3 µM up to 6 µM, upper level = 6 µM and over

COc1ccccc1C(=O)CC1CCN(Cc2ncc[nH]c2=O)CC1 [Example 145] ... upper level
O=c1[nH]ccnc1CN1CCC(CCOc2ccccc2F)CC1 [Example 159] ... upper level
O=c1[nH]ccnc1CN1CCC(/C=C/c2sccc2Cl)CC1 [Example 168] ... lower level
COc1ccccc1OCC1CCN(Cc2ncc[nH]c2=O)CC1 [Example 143] ... middle level
O=c1[nH]ccnc1CN1CCC(CSc2ccccc2F)CC1 [Example 336] ... middle level

Assign a category based on measured IC50 for O=C(CC1CCN(Cc2ncc[nH]c2=O)CC1)c1sccc1Cl [Example 169] and give only the class name.
middle level

Assign a category based on measured IC50 for O=c1[nH]ccnc1CN1CCCC(CCc2ccccc2F)C1 (stereo not drawn) [Example 156] and give only the class name.
middle level

Assign a category based on measured IC50 for O=c1[nH]ccnc1CN1CCC(COc2ccccc2OC(F)(F)F)CC1 [Example 167] and give only the class name.
lower level

Assign a category based on measured IC50 for Cc1ccccc1C#CC1(O)CCN(Cc2ncc[nH]c2=O)CC1 [Example 218] and give only the class name.
middle level

Assign a category based on measured IC50 for O=C(Cc1ccccc1F)C1CCN(Cc2ccn[nH]c2=O)CC1 [Example 364] and give only the class name.
upper level

###

Collected IC50 values appear next to each entry.
Test system: sodium channels
Format: cell-based
Experimental parameters: read-out: IC50 (μM), sodium channel-inhibiting activity; rat fetal cultured hippocampal neurons, SBFI fluorescence in the presence of 4-aminopyridine, 5 minutes after addition, 1 μM tetrodotoxin = 100%
Only the number, expressed in µM, is required.

Returns the measured IC50 for the input compound. Input: O=c1[nH]ccnc1CN1CCC(C(Cc2ccccc2F)=NO)CC1
4.9

Returns the measured IC50 for the input compound. Input: CC(Oc1ccccc1F)C1CCN(Cc2ncc[nH]c2=O)CC1 (stereo not drawn)
2.6

Returns the measured IC50 for the input compound. Input: O=c1[nH]cccc1CN1CC2CCCC(C1)C2/C=C/c1ccccc1F (stereo not drawn)
2.1

###

Test system: sodium channels
Format: cell-based
Experimental parameters: read-out: IC50 (μM), sodium channel-inhibiting activity; rat fetal cultured hippocampal neurons, SBFI fluorescence in the presence of 4-aminopyridine, 5 minutes after addition, 1 μM tetrodotoxin = 100%
Collected IC50 values appear next to each entry.
Only the number, expressed in µM, is required.

O=c1[nH]ccnc1CN1CCC(CCc2ccccc2F)(COc2ccccc2F)CC1 ... 1.6
O=C(Cc1c(F)cccc1F)C1CCN(Cc2ncc[nH]c2=O)CC1 ... 2
CC(c1ncc[nH]c1=O)N1CCC(C(=O)Cc2ccccc2C(F)(F)F)CC1.O=C(O)C(=O)O (stereo not drawn) [Example 394, oxalate] ... 2.8
O=c1[nH]ccnc1CN1CCC(O)(COc2ccccc2F)CC1 ... 8.2
N#CC1(COc2ccccc2F)CCN(Cc2ncc[nH]c2=O)CC1 ... 4.9

Next:
Returns the measured IC50 for the input compound. Input: CCOC(=O)C1(CCc2ccccc2)CCN(Cc2ncc[nH]c2=O)CC1
3.2

Just for reference, patent US20050245527A1 is where these values come from.
